Taken from ChEMBL document CHEMBL2311250.

Could you please report measured half-life for the items listed next?
- test: Half life in Sprague-Dawley rat at 1 mg/kg, iv and 5 mg/kg, po
- Format: ADME, organism-based
- condition parameters: in vivo
Answers are plain numbers, in min.

Check out these entries, answers already filled in.
- molecular string: "CN1CCC(NC(=O)c2cnc(NCc3cc(Cl)ccc3Cl)nc2NC2CCNCC2)CC1"
  display unit: "min"
  half-life: 12
- molecular string: "COc1ccccc1CNc1ncc(C(=O)NC2CCN(C)CC2)c(NC2CCCC2)n1"
  display unit: "min"
  half-life: 210

# per-item lookup of half-life; items listed below
1. CN1CCC(NC(=O)c2cnc(NCc3cc(Cl)ccc3Cl)nc2NC2CCCC2)CC1
2. CN1CCC(NC(=O)c2cnc(Nc3cc(Cl)cc(Cl)c3)nc2N[C@@H]2COC[C@H]2O)CC1

a:
[480, 780]

====

- tgt: Casein kinase II (Homo sapiens, UniProt P19784+P67870+P68400)
- Sequence (P67870 whole entry): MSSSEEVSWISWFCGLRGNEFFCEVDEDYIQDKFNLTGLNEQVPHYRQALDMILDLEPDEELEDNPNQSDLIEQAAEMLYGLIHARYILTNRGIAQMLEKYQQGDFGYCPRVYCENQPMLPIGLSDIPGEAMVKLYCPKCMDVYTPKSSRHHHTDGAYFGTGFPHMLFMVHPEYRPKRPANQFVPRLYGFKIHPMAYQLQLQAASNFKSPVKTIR
- Sequence (P68400 whole entry): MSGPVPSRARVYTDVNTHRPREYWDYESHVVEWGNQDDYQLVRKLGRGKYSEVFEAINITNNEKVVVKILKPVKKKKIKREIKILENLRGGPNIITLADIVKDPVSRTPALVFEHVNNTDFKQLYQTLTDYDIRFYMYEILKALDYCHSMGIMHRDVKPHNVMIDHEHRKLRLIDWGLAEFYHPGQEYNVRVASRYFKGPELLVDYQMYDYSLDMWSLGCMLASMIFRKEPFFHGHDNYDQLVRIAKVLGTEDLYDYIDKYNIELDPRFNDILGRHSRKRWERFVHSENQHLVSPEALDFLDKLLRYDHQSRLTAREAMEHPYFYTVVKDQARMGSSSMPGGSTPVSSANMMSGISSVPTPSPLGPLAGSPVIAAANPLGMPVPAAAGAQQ
- Sequence (P19784 whole entry): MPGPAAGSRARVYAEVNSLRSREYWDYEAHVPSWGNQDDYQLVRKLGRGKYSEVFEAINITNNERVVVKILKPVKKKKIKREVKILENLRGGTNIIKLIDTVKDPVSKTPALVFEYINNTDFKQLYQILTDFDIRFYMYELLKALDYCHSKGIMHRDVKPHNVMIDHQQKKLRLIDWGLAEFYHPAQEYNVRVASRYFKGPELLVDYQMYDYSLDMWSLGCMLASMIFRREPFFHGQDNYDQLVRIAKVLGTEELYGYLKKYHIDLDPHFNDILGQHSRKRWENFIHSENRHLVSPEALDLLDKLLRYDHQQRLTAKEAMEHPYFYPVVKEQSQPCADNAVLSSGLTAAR
- test: Inhibition of CK2 (unknown origin) in presence of ATP
readout name: pIC50
Give bare numbers, as −log10 of the molar value.

q: Quick one: pIC50 for Cc1cc(-c2cnc(Nc3cc(Cl)cc(Cl)c3)nc2NC2CCC(N(C)C)CC2)on1 (stereo unspecified) ?
a: 5.12

====

- test: Permeability of the compound by PAMPA
- Assay type: ADME
- condition parameters: read-out: permeability
Could you please report measured Papp for the items listed next?

Check out these entries, answers already filled in.
- molecular string: "O[C@@H]1COC[C@H]1Nc1nc(Nc2cc(Cl)cc(Cl)c2)ncc1-c1ccc(F)cc1"
  Papp: "< 0.01 ×10⁻⁶ cm/s"
- molecular string: "CN1CCC(NC(=O)c2cnc(NCc3cc(Cl)ccc3Cl)nc2NC2CCNCC2)CC1"
  Papp: "< 0.1 ×10⁻⁶ cm/s"

Now let's try a different one.
q: Quick one: Papp for CN1CCC(NC(=O)c2cnc(Nc3cc(Cl)cc(Cl)c3)nc2NC2CCOCC2)CC1 ?
a: < 0.1 ×10⁻⁶ cm/s

====

- tgt: Tyrosine-protein kinase receptor TYRO3 (Homo sapiens, UniProt Q06418)
- Sequence (Q06418 whole entry): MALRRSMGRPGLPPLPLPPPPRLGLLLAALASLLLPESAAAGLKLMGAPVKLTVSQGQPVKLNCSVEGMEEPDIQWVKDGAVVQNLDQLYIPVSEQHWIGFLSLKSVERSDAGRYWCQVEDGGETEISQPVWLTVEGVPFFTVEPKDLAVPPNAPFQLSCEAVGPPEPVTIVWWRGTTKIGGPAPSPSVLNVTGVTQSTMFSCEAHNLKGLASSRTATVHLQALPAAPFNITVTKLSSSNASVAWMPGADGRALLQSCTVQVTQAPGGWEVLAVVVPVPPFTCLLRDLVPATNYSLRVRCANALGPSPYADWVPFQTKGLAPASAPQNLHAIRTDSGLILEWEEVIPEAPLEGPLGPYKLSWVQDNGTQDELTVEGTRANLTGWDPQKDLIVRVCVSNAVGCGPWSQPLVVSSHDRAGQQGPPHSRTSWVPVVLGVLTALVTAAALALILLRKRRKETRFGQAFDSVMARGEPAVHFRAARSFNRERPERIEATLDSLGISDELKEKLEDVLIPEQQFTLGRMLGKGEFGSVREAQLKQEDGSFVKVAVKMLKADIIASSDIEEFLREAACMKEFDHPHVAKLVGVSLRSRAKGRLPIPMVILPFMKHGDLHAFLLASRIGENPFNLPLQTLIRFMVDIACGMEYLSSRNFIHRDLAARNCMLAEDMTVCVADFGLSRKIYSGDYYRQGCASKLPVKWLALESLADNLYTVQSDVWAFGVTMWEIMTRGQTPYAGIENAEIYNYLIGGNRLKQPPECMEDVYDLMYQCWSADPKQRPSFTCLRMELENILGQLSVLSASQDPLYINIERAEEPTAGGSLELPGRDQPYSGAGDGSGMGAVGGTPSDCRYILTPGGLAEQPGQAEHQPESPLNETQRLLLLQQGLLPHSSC
pIC50: −log10 of the molar value.
# binarize pIC50: threshold 7 inclusive, high side yes (1), low side no (0)

# count of solved cases: 5
- compound: "CN1CCC(NC(=O)c2cnc(Nc3cc(Cl)cc(Cl)c3)nc2N[C@@H]2COC[C@H]2O)CC1"
  group: "yes (1)"
- compound: "CN1CCC(NC(=O)c2cnc(NCc3cc(Cl)ccc3Cl)nc2NC2CCCC2)CC1"
  group: "no (0)"
- compound: "CN1CCC(NC(=O)c2cnc(NCc3cc(Cl)ccc3Cl)nc2NC2CCC(N(C)C)CC2)CC1 (centres undefined)"
  group: "yes (1)"
- compound: "O[C@@H]1COC[C@H]1Nc1nc(Nc2cc(Cl)cc(Cl)c2)ncc1-c1cccnc1"
  group: "yes (1)"
- compound: "CN1CCC(NC(=O)c2cnc(NCc3cc(Cl)ccc3Cl)nc2NC2CCNCC2)CC1"
  group: "no (0)"

q: Check the entry CN1CCC(NC(=O)c2cnc(Nc3cc(Cl)cc(Cl)c3)nc2NC2CCOCC2)CC1 : does pIC50 equal or exceed 7?
a: yes (1)

q: Check the entry COc1ccccc1CNc1ncc(C(=O)NC2CCN(C)CC2)c(NC2CCCC2)n1 : does pIC50 equal or exceed 7?
a: no (0)

q: Check the entry O[C@@H]1COC[C@H]1Nc1nc(Nc2cc(Cl)cc(Cl)c2)ncc1Br : does pIC50 equal or exceed 7?
a: yes (1)
